# System under test: T1, Rok-C102-185 (Bacillus subtilis subsp. subtilis str. …, UniProt O34857 102-185)
# T1 sequence: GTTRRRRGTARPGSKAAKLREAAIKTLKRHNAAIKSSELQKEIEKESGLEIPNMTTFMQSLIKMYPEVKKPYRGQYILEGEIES
# Procedure text: ITC; ITC: sodium phosphate buffer, 200 mM NaCl, pH 6, 277 K, 50 uM protein in cell titrated with 750 uM Seq1 DNA; PBM: buffer not stated
# Test conditions: protein: recombinant; tags: C-terminal His6; blunt, self-complementary 18 bp
pKd: −log10 of the molar value.
Endpoint: pKd

| Binder | Endpoint | Val |
| --- | --- | --- |
| Seq1 (dsDNA) DNA 1: CTAATAACTAGTTATTAG DNA 2: CTAATAACTAGTTATTAG | pKd | 5.10 |
